TARGET_OF_ASSAY: COX-1 (Ovis aries, UniProt P05979)
Construct: purchased Cayman Chemical #560101
Sequence (P05979 25-600): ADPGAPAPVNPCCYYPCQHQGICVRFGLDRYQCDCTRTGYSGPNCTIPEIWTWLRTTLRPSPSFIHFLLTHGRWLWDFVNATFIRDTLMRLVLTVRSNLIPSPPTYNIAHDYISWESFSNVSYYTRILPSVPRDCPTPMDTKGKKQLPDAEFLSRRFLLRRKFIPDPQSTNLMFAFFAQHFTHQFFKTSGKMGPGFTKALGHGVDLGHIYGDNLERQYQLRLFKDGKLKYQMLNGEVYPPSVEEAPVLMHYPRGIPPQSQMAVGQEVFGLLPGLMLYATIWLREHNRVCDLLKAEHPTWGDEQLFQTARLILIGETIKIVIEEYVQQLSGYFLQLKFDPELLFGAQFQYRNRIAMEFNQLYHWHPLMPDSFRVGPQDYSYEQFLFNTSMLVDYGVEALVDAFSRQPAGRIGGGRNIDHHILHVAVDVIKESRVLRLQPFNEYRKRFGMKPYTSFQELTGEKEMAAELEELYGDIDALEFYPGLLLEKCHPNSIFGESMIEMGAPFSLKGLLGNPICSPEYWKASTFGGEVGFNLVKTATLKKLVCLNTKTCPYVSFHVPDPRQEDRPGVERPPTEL
EXPERIMENTAL_DETAILS: COX-1 inhibition, prostaglandin (PGF2α) enzyme immunoassay
Format: biochemical
MEASUREMENT_PARAMETERS: Example 1, read from FIG. 1
RESULT_TYPE: IC50

I'd like to know its IC50. The molecule in question is [Na+].[Na+].[O-][N+]([O-])=NO [Angeli's salt, Na2ON(O)NO] ~600 µM

====

TARGET_OF_ASSAY: COX-2 (Ovis aries, UniProt P79208)
Construct: purchased Cayman Chemical #560101
Sequence (P79208 17-603): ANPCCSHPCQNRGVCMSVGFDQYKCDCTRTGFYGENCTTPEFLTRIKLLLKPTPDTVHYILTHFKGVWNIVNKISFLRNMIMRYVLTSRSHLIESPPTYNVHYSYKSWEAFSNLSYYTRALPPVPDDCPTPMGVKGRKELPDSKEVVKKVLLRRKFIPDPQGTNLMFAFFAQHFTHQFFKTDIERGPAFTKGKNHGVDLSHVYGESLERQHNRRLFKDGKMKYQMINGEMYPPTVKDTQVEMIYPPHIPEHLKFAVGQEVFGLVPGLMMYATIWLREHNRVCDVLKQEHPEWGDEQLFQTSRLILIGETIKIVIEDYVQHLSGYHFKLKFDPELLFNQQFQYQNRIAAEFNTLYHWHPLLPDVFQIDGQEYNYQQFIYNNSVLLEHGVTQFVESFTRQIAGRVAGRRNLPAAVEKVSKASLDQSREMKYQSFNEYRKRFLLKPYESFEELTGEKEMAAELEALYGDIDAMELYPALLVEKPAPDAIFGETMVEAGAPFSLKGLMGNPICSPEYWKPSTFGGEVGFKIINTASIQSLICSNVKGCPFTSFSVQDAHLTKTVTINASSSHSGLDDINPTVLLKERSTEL
EXPERIMENTAL_DETAILS: COX-2 inhibition, prostaglandin (PGF2α) enzyme immunoassay
Assay type: biochemical
MEASUREMENT_PARAMETERS: Example 2, reasonable estimate
pIC50: −log10 of the molar value.
RESULT_TYPE: pIC50

Give the measured pIC50 of [Na+].[Na+].[O-][N+]([O-])=NO [Angeli's salt, Na2ON(O)NO] . ~4.30

====

TARGET_OF_ASSAY: COX-1 (Ovis aries, UniProt P05979)
Construct: purchased Cayman Chemical #560101
EXPERIMENTAL_DETAILS: COX-1 inhibition, prostaglandin (PGF2α) enzyme immunoassay
Type: biochemical
MEASUREMENT_PARAMETERS: Example 2, reasonable estimate
RESULT_TYPE: IC50

// returns reported IC50 for input [Na+].[Na+].[O-][N+]([O-])=NO [Angeli's salt, Na2ON(O)NO] 200 to 250 µM

====

TARGET_OF_ASSAY: COX-2 (Ovis aries)
Construct: purchased Cayman Chemical #560101
EXPERIMENTAL_DETAILS: COX-2 inhibition, prostaglandin (PGF2α) enzyme immunoassay
Type: biochemical
MEASUREMENT_PARAMETERS: Example 1, read from FIG. 1
RESULT_TYPE: IC50

Find IC50 (COX-2 (Ovis aries)) for the entry [Na+].[Na+].[O-][N+]([O-])=NO [Angeli's salt, Na2ON(O)NO] ~50 µM
